This collection of values is drawn from ChEMBL document CHEMBL4837211.

Experiment: Cytotoxicity against African green monkey Vero cells assessed as reduction in cell viability by neutral red dye based colorimetric analysis
Settings: chlorocebus sabaeus, Vero cells
MEASUREMENT_NAME: CC50

For this compound ( O=C(NNC1C2CC3CC1CC(Cl)(C3)C2)c1ccc(C(F)(F)F)cc1 (centres undefined) ), measured CC50 is ~215 µM

For this compound ( O=C(NNC1C2CC3CC(C2)CC1C3)c1ccc(C(F)(F)F)cc1 (centres undefined) ), measured CC50 is > 296 µM

For this compound ( CCC12CC3CC(C1)CC(C(=O)NNC(=O)c1ccc(C(F)(F)F)cc1)(C3)C2 ), measured CC50 is 47 µM

For this compound ( O=C(NN=C1C2CC3CC(C2)CC1C3)c1ccc(C(F)(F)F)cc1 ), measured CC50 is > 297 µM

====

Test system: p37 (Ectromelia virus K1)
Test: Selectivity index, ratio of CC50 for African green monkey Vero cells to IC50 for inhibition of p37 in Ectromelia virus K1 infected in African green monkey Vero cells
Assay type: toxicity
Details: read-out: Ratio CC50/IC50
I'd be grateful if you could share measured selectivity ratio for these entries.

For this compound ( CN(C(=O)c1ccc(C(F)(F)F)cc1)C12CC3CC(CC(C3)C1)C2 ), measured selectivity ratio is > 48

For this compound ( O=C(NCC12CC3CC(CC(C3)C1)C2)c1ccc(Br)cc1 ), measured selectivity ratio is 136

For this compound ( CC12CC3CC(C1)CC(NC(=O)c1ccc(C(F)(F)F)cc1)(C3)C2 ), measured selectivity ratio is > 72

For this compound ( CCC12CC3CC(C1)CC(NC(=O)c1ccc(C(F)(F)F)cc1)(C3)C2 ), measured selectivity ratio is > 25

For this compound ( O=C(NC12CC3CC(CC(C3)C1)C2)c1ccc(C(F)(F)F)cc1 ), measured selectivity ratio is > 628

For this compound ( O=C(NN1C(=O)[C@@H]2[C@@H]3C=C[C@@H]([C@H]4C[C@@H]34)[C@@H]2C1=O)c1ccc(C(F)(F)F)cc1 ), measured selectivity ratio is > 33000

For this compound ( O=C(NC1C2CC3CC(C2)CC1C3)c1ccc(C(F)(F)F)cc1 (centres undefined) ), measured selectivity ratio is > 543

For this compound ( O=C(NNC(=O)C12CC3CC(CC(C3)C1)C2)c1ccc(C(F)(F)F)cc1 ), measured selectivity ratio is > 273

For this compound ( O=C(NNC1C2CC3CC1CC(Cl)(C3)C2)c1ccc(C(F)(F)F)cc1 (centres undefined) ), measured selectivity ratio is 27.5

====

Tested on: p37 (Vaccinia virus Copenhagen)
Assay: Selectivity index, ratio of CC50 for African green monkey Vero cells to IC50 for inhibition of p37 in Vaccinia virus Copenhagen infected in African green monkey Vero cells
Assay type: toxicity
Conditions: read-out: Ratio CC50/IC50
I'd be grateful if you could share measured selectivity ratio for these entries.

Summary: O=C(NNC(=O)C12CC3CC(CC(C3)C1)C2)c1ccc(C(F)(F)F)cc1 , p37 (Vaccinia virus Copenhagen), selectivity ratio = > 255

Summary: O=C(NNC1C2CC3CC1CC(Cl)(C3)C2)c1ccc(C(F)(F)F)cc1 (stereo not given) , p37 (Vaccinia virus Copenhagen), selectivity ratio = 61

Summary: O=C(NNC(=O)c1ccc(C(F)(F)F)cc1)NC12CC3CC(CC(C3)C1)C2 , p37 (Vaccinia virus Copenhagen), selectivity ratio = 2.6

Summary: O=C(NCC12CC3CC(CC(C3)C1)C2)c1ccc(C(F)(F)F)cc1 , p37 (Vaccinia virus Copenhagen), selectivity ratio = > 1100

Summary: CC12CC3CC(C)(C1)CC(C(=O)NNC(=O)c1ccc(C(F)(F)F)cc1)(C3)C2 , p37 (Vaccinia virus Copenhagen), selectivity ratio = > 8.2

Summary: CCC12CC3CC(C1)CC(NNC(=O)c1ccc(C(F)(F)F)cc1)(C3)C2 , p37 (Vaccinia virus Copenhagen), selectivity ratio = 1.5

Summary: O=C(NC1C2CC3CC(C2)CC1C3)c1ccc(C(F)(F)F)cc1 (stereo not given) , p37 (Vaccinia virus Copenhagen), selectivity ratio = > 1430

Summary: O=C(NC1C2CC3CC(C2)CC1C3)c1ccc(Br)cc1 (stereo not given) , p37 (Vaccinia virus Copenhagen), selectivity ratio = > 98

Summary: O=C(NNC1C2CC3CC(C2)CC1C3)c1ccc(C(F)(F)F)cc1 (stereo not given) , p37 (Vaccinia virus Copenhagen), selectivity ratio = > 103

Summary: CC12CC3CC(C1)CC(NC(=O)c1ccc(C(F)(F)F)cc1)(C3)C2 , p37 (Vaccinia virus Copenhagen), selectivity ratio = > 33
